- target-or-test-system: T1, HLA-A*02:01 class I complex (conditional p*HLA*02:01, biotinylated heavy chain with beta2-microglobulin) (human, biotinylated heavy chain)
- T1 construct: UV-labile peptide p* is cleaved and exchanged for the test peptide; also called HLA 2.1
- test-name: UV peptide exchange, HLA class I ELISA, % of Pos peptide;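 note: Streptavidin-captured HLA complexes after exchange detected via HRP anti-human B2M antibody, absorbance read, colour scales with intact complex, normalized to exchange control peptide as 100%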
Labelling: Average % reported below 70% becomes label 1; at or above becomes label 0.

binder: YLDCGIHSV (also called M022) [CTNNB1_S33C5 mimic peptide YLDCGIHSV]
class: label 0

binder: ALNNMFCQL (also called M160) [TP53.K132N mutant peptide ALNNMFCQL]
class: label 1

binder: YMDSGIHFV (also called M033) [CTNNB1_S37F6 mimic peptide YMDSGIHFV]
class: label 0

binder: VLSDAISAL (also called M123; SOX17_S40316) [SOX17_S403I6 mimic peptide VLSDAISAL]
class: label 0

Ask: State whether 70% exceeds Average % recorded for VLSDAISAV (also called M121; SOX17_S40312) [SOX17_S403I2 mimic peptide VLSDAISAV] .
Reply: label 0

Ask: And what about the binder YLDSGIHFG (also called M030) [CTNNB1.S37F mutant peptide YLDSGIHFG] ?
Reply: label 1

Ask: Now give it for LLGRNSFEL (also called M221) [TP53_V272M2 mimic peptide LLGRNSFEL] too.
Reply: label 0

Ask: Would you mind doing MMFSKRHWI (also called M011) [CIC_R215W15 mimic peptide MMFSKRHWI] as well?
Reply: label 1

Ask: Can you check KMYPVQLWV (also called M132) [TP53_C141Y3 mimic peptide KMYPVQLWV] next?
Reply: label 0

Ask: Here is the next binder: SVTCTYFPA (also called M210) [TP53.S127F mutant peptide SVTCTYFPA]
Reply: label 1
